Task for the reader: assign each of the following binders its reported FACS fluorescence.
Molecular target: T1, human CLDN6 fused to GFP, expressed on engineered HEK293T cells (HEK293T-CLDN6-mGFP) (human, UniProt P56747 1-220)
T1 construct: It calls residues 1-21 a signal peptide; also called Claudin-6; HEK293T-CLDN6-mGFP Artificial CLDN6+; not shown: mGFP tag
T1 sequence: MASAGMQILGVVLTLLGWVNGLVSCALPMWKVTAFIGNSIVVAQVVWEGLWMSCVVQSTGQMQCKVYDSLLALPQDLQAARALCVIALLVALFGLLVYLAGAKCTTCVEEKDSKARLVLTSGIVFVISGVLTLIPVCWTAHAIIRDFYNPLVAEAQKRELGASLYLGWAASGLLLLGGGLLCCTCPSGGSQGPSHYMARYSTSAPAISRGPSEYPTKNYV
Experiment: FACS, 0.3 µg Ab, 293T clone with human CLDN6
Output spec: single numeric token, no unit.

# binder AB1-Chim (antibody, V domains shown, 'chim' is the pre-humanized form (parental variable regions); also called pre-humanized (chimeric) form of AB1) VH: QVQLQQSAAELARPGASVKMSCKASGYTFTTYTMHWVKQRPGQGLEWIGFINPSSGYTDYNQKFKDRTTLTADKSSSTVYMQLSSLTSEDSAVYYCANGDYYVAYWGQGTLVTVSA VL: QIVLTQSPAIMSASLGERVTMTCTASSSVSSTYFHWYQQKPGSSPKLWIYSTSNLASGVPRRFSGSASGTSYSLTISSMEAEDAATYYCHQYHRSPLTFGAGTKLELK ; its FACS fluorescence = 312000

# binder AB1-7 (antibody, V domains shown, Humanized; also called Humanized AB 1-7) VH: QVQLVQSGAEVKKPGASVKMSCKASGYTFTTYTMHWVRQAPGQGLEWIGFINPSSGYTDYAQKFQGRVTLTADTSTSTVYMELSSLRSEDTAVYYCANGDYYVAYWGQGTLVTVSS VL: DIQLTQSPSSLSASVGDRVTMTCTASSSVSSTYFHWYQQKPGKAPKLLIYSTSNLASGVPSRFSGSGSGTDYTLTISSMQPEDAATYYCHQYHRSPLTFGQGTKLEIK ; its FACS fluorescence = 79200
